assay: Compound cytotoxicity, XTT-based colorimetric assay; type: cell-based; conditions: human, uninfected MT2 cells, Table 1a, day 4, XTT
Quick list: CC50 at 4 days per entry.

Give the reported CC50 at 4 days for this compound. COc1ccc2c(=O)n(-c3ccc(Cl)c4c(NS(C)(=O)=O)nn(C)c34)c(C(Cc3cc(F)cc(F)c3)NC(=O)Cn3nc(C(F)F)c4c3C(F)(F)[C@@H]3C[C@H]43)nc2c1F (stereo partly drawn)
> 1000 nM

Supply measured CC50 at 4 days of Cc1cccc2nc([C@H](Cc3cc(F)cc(F)c3)NC(=O)Cn3ccc(C4CC4)n3)n(-c3ccc(Cl)c4c(NS(C)(=O)=O)nn(C)c34)c(=O)c12 (single isomer, unassigned) in your reply.
> 1000 nM

State, in one line, measured CC50 at 4 days of O=C(Cn1nc(C(F)F)c2c1C(F)(F)[C@@H]1C[C@H]21)N[C@@H](Cc1cc(F)cc(F)c1)c1nc2ncccc2c(=O)n1-c1ccc(OC(F)F)cc1
3160 nM
